Where do these numbers come from? They come from patent US20010044463A1.

Test system: H. pylori ATCC 43504
Test: Minimum Inhibitory Concentration (MIC) blood agar plate growth inhibition
Type: cell-based, Helicobacter pylori
Conditions: Tables IX-XIII; final drug concentration 25 μg/ml
assay_readout: growth (amount of colonies present within the petri plate)

• CCC1(C2OC(C3OC(O)(COC(=O)Nc4cccnc4)C(C)CC3C)CC2C)CCC(C2(C)CCC3(CC(O)C(C)C(C(C)C(OC)C(C)C(=O)O)O3)O2)O1 (stereo not shown) [Monensin pyridyl carbamate, 26-O-(3-pyridylcarbamoyl) monensin] = No growth
• CC[C@@]1([C@@H]2O[C@@H]([C@H]3O[C@@](O)(CO)[C@H](C)C[C@@H]3C)C[C@@H]2C)CC[C@H]([C@]2(C)CC[C@]3(C[C@H](O)[C@@H](C)[C@@H]([C@@H](C)[C@@H](OC)[C@H](C)C(=O)O)O3)O2)O1 [Monensin, monensin] = No growth
• CCC1(C2OC(C3OC(O)(COC(=O)NC(C)NC(=O)OCC4c5ccccc5-c5ccccc54)C(C)CC3C)CC2C)CCC(C2(C)CCC3(CC(O)C(C)C(C(C)C(OC)C(C)C(=O)O)O3)O2)O1 (stereo not shown) [Fmoc-Ala-monensin] = No growth

----------
System: H. pylori (urease positive) ATCC Number 51652
Test: Minimum Inhibitory Concentration (MIC) blood agar plate growth inhibition
Assay type: cell-based, Helicobacter pylori
Settings: Table XVII; Blood agar base + 3% sheep blood; final drug concentration 10 μg/ml
Experimental: Monensin (Sigma Cat. No. M-5273) was dissolved in 100% absolute ethanol (AAPER Alcohol and Chemical Co.) at a concentration of 20 mg/ml. Subsequent dilutions were made in ethanol immediately prior to use. Nigericin (Sigma Cat. No. N-7143) was dissolved in DMSO at 2 mg/ml. Subsequent dilutions were made in BHI medium (Brain heart infusion broth, Difco #0037-07-0) immediately prior to use. […] Inhibition of growth was determined by the amount of colonies present within the petri plate. […]
assay_readout: growth (amount of colonies present within the petri plate)

* CNc1ccc2oc(C[C@H]3O[C@@]4(CC[C@H]3C)O[C@H]([C@H](C)C(=O)c3ccc[nH]3)[C@H](C)C[C@H]4C)nc2c1C(=O)O | No growth
* CC[C@@H](C(=O)[C@@H](C)[C@@H](O)[C@H](C)[C@@H]1O[C@@H]([C@@H](CC)C(=O)O)CC[C@@H]1C)[C@H]1O[C@]2(C=C[C@@H](O)[C@]3(CC[C@@](C)([C@H]4CC[C@](O)(CC)[C@H](C)O4)O3)O2)[C@H](C)C[C@@H]1C | No growth

----------
Test system: H. pylori ATCC 43504
Assay: Minimum Inhibitory Concentration (MIC) blood agar plate growth inhibition
Assay type: cell-based, Helicobacter pylori
Settings: Tables IX-XIII; final drug concentration 6.25 μg/ml
assay_readout: growth (amount of colonies present within the petri plate)

* CC[C@@]1([C@@H]2O[C@@H]([C@H]3O[C@@](O)(CO)[C@H](C)C[C@@H]3C)C[C@@H]2C)CC[C@H]([C@]2(C)CC[C@]3(C[C@H](O)[C@@H](C)[C@@H]([C@@H](C)[C@@H](OC)[C@H](C)C(=O)O)O3)O2)O1 [Monensin, monensin] | No growth
* CCC1(C2OC(C3OC(O)(COC(=O)Nc4cccnc4)C(C)CC3C)CC2C)CCC(C2(C)CCC3(CC(O)C(C)C(C(C)C(OC)C(C)C(=O)O)O3)O2)O1 (stereo not shown) [Monensin pyridyl carbamate, 26-O-(3-pyridylcarbamoyl) monensin] | No growth
